# test.target: Human recombinant active MMP-2 (Homo sapiens)
# conditions.used: slow-binding
Recorded 10^−3kon, MMP-2 values for a group of compounds are listed next.
value.kind: 10^−3kon, MMP-2 (M^−1s^−1)

{"columns": ["compound", "value.kind", "unit.string", "reported.result"],
 "data": [
  ["Nc1ccc(Oc2ccc(S(=O)(=O)CC3CS3)cc2)cc1O (stereo not shown)", "10^−3kon, MMP-2", "M^−1s^−1", 1.7],
  ["NCC(=O)Nc1ccc(Oc2ccc(S(=O)(=O)CC3CS3)cc2)cc1 (stereo not shown)", "10^−3kon, MMP-2", "M^−1s^−1", 1.9],
  ["NCCCC[C@H](N)C(=O)Nc1ccc(Oc2ccc(S(=O)(=O)CC3CS3)cc2)cc1 (stereo partly shown)", "10^−3kon, MMP-2", "M^−1s^−1", 3.4],
  ["N[C@@H](CCC(=O)O)C(=O)Nc1ccc(Oc2ccc(S(=O)(=O)CC3CS3)cc2)cc1 (stereo partly shown)", "10^−3kon, MMP-2", "M^−1s^−1", 2.5]
]}

---

# experiment: in vivo
# conditions.used: male, C57Bl/6J, mouse, iv

{"columns": ["molecule", "Vd [L]"],
 "data": [
  ["Nc1ccc(Oc2ccc(S(=O)(=O)CC3CS3)cc2)cc1 (centres unmarked)", 0.0125]
]}

---

# test.target: catalytic domain of human recombinant MMP-9 (Homo sapiens, UniProt P14780)
# Sequence (P14780 107-444 limits assumed): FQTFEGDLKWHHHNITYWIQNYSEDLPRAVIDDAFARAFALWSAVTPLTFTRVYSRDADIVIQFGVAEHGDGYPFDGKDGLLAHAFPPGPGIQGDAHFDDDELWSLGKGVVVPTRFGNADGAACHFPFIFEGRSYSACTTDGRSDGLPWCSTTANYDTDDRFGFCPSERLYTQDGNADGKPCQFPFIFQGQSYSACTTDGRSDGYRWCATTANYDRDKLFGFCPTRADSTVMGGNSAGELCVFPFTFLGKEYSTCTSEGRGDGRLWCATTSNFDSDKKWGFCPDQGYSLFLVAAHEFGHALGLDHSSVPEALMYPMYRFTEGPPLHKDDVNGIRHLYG
# conditions.used: slow-binding
Recorded 10^−3kon, MMP-9 catalytic domain values for a group of compounds are listed next.

{"columns": ["compound", "unit.string", "10^−3kon, MMP-9 catalytic domain"],
 "data": [
  ["N[C@@H](CCC(=O)O)C(=O)Nc1ccc(Oc2ccc(S(=O)(=O)CC3CS3)cc2)cc1 (stereo partly shown)", "M^−1s^−1", 0.28],
  ["NCCCC[C@H](N)C(=O)Nc1ccc(Oc2ccc(S(=O)(=O)CC3CS3)cc2)cc1 (stereo partly shown)", "M^−1s^−1", 0.27],
  ["Nc1ccc(Oc2ccc(S(=O)(=O)CC3CS3)cc2)cc1O (stereo not shown)", "M^−1s^−1", 1.1],
  ["NCC(=O)Nc1ccc(Oc2ccc(S(=O)(=O)CC3CS3)cc2)cc1 (stereo not shown)", "M^−1s^−1", 0.21]
]}

---

Recorded 10^4koff, MMP-2 values for a group of molecules are listed next.
# test.target: Human recombinant active MMP-2 (Homo sapiens, UniProt P08253)
# Sequence (P08253 110-660): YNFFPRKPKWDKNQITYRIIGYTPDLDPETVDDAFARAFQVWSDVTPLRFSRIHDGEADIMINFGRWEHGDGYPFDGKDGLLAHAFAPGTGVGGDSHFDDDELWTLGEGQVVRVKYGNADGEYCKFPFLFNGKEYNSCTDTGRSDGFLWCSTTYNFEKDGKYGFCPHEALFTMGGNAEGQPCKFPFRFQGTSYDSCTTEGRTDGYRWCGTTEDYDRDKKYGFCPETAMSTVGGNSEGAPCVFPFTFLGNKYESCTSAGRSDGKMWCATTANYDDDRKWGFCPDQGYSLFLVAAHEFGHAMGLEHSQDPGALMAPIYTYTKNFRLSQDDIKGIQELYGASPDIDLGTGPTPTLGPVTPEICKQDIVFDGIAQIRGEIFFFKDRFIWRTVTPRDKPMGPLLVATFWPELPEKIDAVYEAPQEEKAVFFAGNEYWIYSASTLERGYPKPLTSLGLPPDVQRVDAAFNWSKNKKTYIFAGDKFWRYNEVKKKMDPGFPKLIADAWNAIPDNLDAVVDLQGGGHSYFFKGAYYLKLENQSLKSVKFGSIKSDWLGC
# conditions.used: slow-binding

{"columns": ["molecule", "test.target", "unit.string", "10^4koff, MMP-2"],
 "data": [
  ["Nc1ccc(Oc2ccc(S(=O)(=O)CC3CS3)cc2)cc1O (stereo not shown) [Compound 13]", "Human recombinant active MMP-2 (Homo sapiens, UniProt P08253)", "s^−1", 1.4],
  ["NCCCC[C@H](N)C(=O)Nc1ccc(Oc2ccc(S(=O)(=O)CC3CS3)cc2)cc1 (stereo partly shown) [Compound 5b]", "Human recombinant active MMP-2 (Homo sapiens, UniProt P08253)", "s^−1", 2.1],
  ["N[C@@H](CCC(=O)O)C(=O)Nc1ccc(Oc2ccc(S(=O)(=O)CC3CS3)cc2)cc1 (stereo partly shown) [Compound 5c]", "Human recombinant active MMP-2 (Homo sapiens, UniProt P08253)", "s^−1", 1.8],
  ["NCC(=O)Nc1ccc(Oc2ccc(S(=O)(=O)CC3CS3)cc2)cc1 (stereo not shown) [Compound 5a]", "Human recombinant active MMP-2 (Homo sapiens, UniProt P08253)", "s^−1", 8.2]
]}

---

Recorded half-life values for a group of compounds are listed next.
# experiment: in vivo
# conditions.used: male, C57Bl/6J, mouse, iv, t½ α (distribution half life), IV dose of 5d […], mice

{"columns": ["compound", "unit.string", "comparison.symbol", "half-life"],
 "data": [
  ["N=C(N)NCCC[C@H](N)C(=O)Nc1ccc(Oc2ccc(S(=O)(=O)CC3CS3)cc2)cc1 (stereo partly drawn) [Compound 5d]", "min", "<", 1],
  ["Nc1ccc(Oc2ccc(S(=O)(=O)CC3CS3)cc2)cc1 (stereo not drawn) [Compound 3]", "min", "=", 2.9],
  ["CC(=O)Nc1ccc(Oc2ccc(S(=O)(=O)CC3CS3)cc2)cc1 (stereo not drawn) [Compound M3]", "min", "=", 12]
]}
